- Run Description: Plasma cysteamine levels by mass spectrometry
- Assay type: in vivo, mice
- Condition: read-out: Cmax levels of cysteamine; C57BL/6 mice, 600 mg/kg in drinking water for 3 days
Endpoint Label: Cmax

Just so you know, measured Cmax for NCCS [cysteamine bitartrate] came out at 15 to 20 µM
